# target: T1, 4H3381-bN
# T1 chain: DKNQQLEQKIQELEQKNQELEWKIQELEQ
# protocol_text: two-hybrid library CCNG1;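 also: natural log of median RNA to DNA barcode read ratio; higher means stronger binding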
measured_attribute: interaction score

[a] DKIQQLKQKIQELKQKNQELEWENQELEQ [4H2931-bN]
[b] DKIQQLEQKNQELEQEIQELKWENQELKQ [4H2444-bN]
[c] DKIQQLKQENQELKQEIQELEWKNQELKQ [4H2760-bN]
Kindly order the items shown according to interaction score, from the highest value down. Field: ranking. Enter the labels in the order requested.
c, b, a
(c: 0.638, b: 0.0258, a: -1.1)

[P] DEIQQLEQENQELKQKIQELKWENQELEQ [4H235-bN]
[Q] DKIQQLEQENQELEQKNQELKWEIQELEQ [4H2233-bN]
// task: argmin of interaction score over [ P , Q ] Your answer should be the label attached to the chosen record.
P
